test system: RERF-LC-KJ; assay: relative viability (nuclei count vs DMSO), 5 days (fraction); higher = more cells survive; conditions: first compound 0.253 µM
measured_attribute: relative viability
No unit in the answer, only the number.

// relative viability lookup, key: C=C1C(=O)O[C@@H](CCCCCCCC)[C@@H]1C(=O)O [C-75] + CC1(C)CCC(c2ccc(Cl)cc2)=C(CN2CCN(c3ccc(C(=O)NS(=O)(=O)c4ccc(N[C@H](CCN5CCOCC5)CSc5ccccc5)c(S(=O)(=O)C(F)(F)F)c4)cc3)CC2)C1 [Navitoclax] (partner 0.5 µM)
1.47

Recorded relative viability for Oc1nc(-c2ccc(C(F)(F)F)cc2)nc2c1CSCC2 [XAV939] + CC1(C)CCC(c2ccc(Cl)cc2)=C(CN2CCN(c3ccc(C(=O)NS(=O)(=O)c4ccc(N[C@H](CCN5CCOCC5)CSc5ccccc5)c(S(=O)(=O)C(F)(F)F)c4)cc3)CC2)C1 [Navitoclax] (partner 0.5 µM) , please?
0.999

Which value of relative viability has been reported for Oc1nc(-c2ccc(C(F)(F)F)cc2)nc2c1CSCC2 [XAV939] + Cc1nc(Nc2ncc(C(=O)Nc3c(C)cccc3Cl)s2)cc(N2CCN(CCO)CC2)n1 [Dasatinib] (partner 0.075 µM) in the records?
0.643

Which relative viability value belongs to Oc1nc(-c2ccc(C(F)(F)F)cc2)nc2c1CSCC2 [XAV939] + C[C@]1(O)C[C@@H](c2nc(-c3ccc4ccc(-c5ccccc5)nc4c3)c3c(N)nccn32)C1 [Linsitinib] (partner 1 µM) ?
0.765

// lookup relative viability for C=C1C(=O)O[C@@H](CCCCCCCC)[C@@H]1C(=O)O [C-75] + O=C(CCCCCCC(=O)Nc1ccccc1)NO [Vorinostat] (partner 1 µM)
0.801

Query (compound): Oc1nc(-c2ccc(C(F)(F)F)cc2)nc2c1CSCC2 [XAV939] + Cc1nc(NC(=O)N2CCC[C@H]2C(N)=O)sc1-c1ccnc(C(C)(C)C(F)(F)F)c1 [Alpelisib] (partner 2 µM) ; field requested: relative viability
0.708

Return reported relative viability; argument: C=C1C(=O)O[C@@H](CCCCCCCC)[C@@H]1C(=O)O [C-75] + CC(=O)Nc1cccc(-n2c(=O)n(C3CC3)c(=O)c3c(Nc4ccc(I)cc4F)n(C)c(=O)c(C)c32)c1 [Trametinib] (partner 0.02 µM)
0.945

* * *

tested on: H3255; assay: relative viability (nuclei count vs DMSO), 5 days (fraction); higher = more cells survive; conditions: first compound 0.005 µM
measured_attribute: relative viability
Reply with the value as a number alone.

Need relative viability of CC1(C)CCC(c2ccc(Cl)cc2)=C(CN2CCN(c3ccc(C(=O)NS(=O)(=O)c4ccc(N[C@H](CCN5CCOCC5)CSc5ccccc5)c(S(=O)(=O)C(F)(F)F)c4)cc3)CC2)C1 [Navitoclax] + C[C@@H](Oc1cc(-c2cnn(C3CCNCC3)c2)cnc1N)c1c(Cl)ccc(F)c1Cl [Crizotinib] (partner 1 µM) , thanks.
0.902

* * *

Record form. Attribute: relative viability. Fill in for each entry.
test system: NCI-H2085; test: relative viability (nuclei count vs DMSO), 5 days (fraction); higher = more cells survive; settings: first compound 2.53 µM
Form rule: numeric answer, no unit written next to it.

Need relative viability of C=C1C(=O)O[C@@H](CCCCCCCC)[C@@H]1C(=O)O [C-75] + Cc1nc(Nc2ncc(C(=O)Nc3c(C)cccc3Cl)s2)cc(N2CCN(CCO)CC2)n1 [Dasatinib] (partner 0.075 µM) , thanks.
0.266

Item Oc1nc(-c2ccc(C(F)(F)F)cc2)nc2c1CSCC2 [XAV939] + CCNC(=O)c1noc(-c2cc(C(C)C)c(O)cc2O)c1-c1ccc(CN2CCOCC2)cc1 [Luminespib] (partner 0.01 µM) has what recorded relative viability?
0.406

Name the reported relative viability value associated with the compound Oc1nc(-c2ccc(C(F)(F)F)cc2)nc2c1CSCC2 [XAV939] + Cc1nc(Nc2ncc(C(=O)Nc3c(C)cccc3Cl)s2)cc(N2CCN(CCO)CC2)n1 [Dasatinib] (partner 0.075 µM)
0.204

State the recorded relative viability for this entry: Oc1nc(-c2ccc(C(F)(F)F)cc2)nc2c1CSCC2 [XAV939] + Nc1nc2[nH]cc(CCc3ccc(C(=O)N[C@@H](CCC(=O)O)C(=O)O)cc3)c2c(=O)[nH]1 [Pemetrexed] (partner 0.2 µM)
0.837

Fill in the blank: the reported relative viability of Oc1nc(-c2ccc(C(F)(F)F)cc2)nc2c1CSCC2 [XAV939] + COc1cc2c(Oc3ccc(NC(=O)C4(C(=O)Nc5ccc(F)cc5)CC4)cc3F)ccnc2cc1OCCCN1CCOCC1 [Foretinib] (partner 0.25 µM) is ____.
0.893

Return reported relative viability; argument: Oc1nc(-c2ccc(C(F)(F)F)cc2)nc2c1CSCC2 [XAV939] + CC1(C)CCC(c2ccc(Cl)cc2)=C(CN2CCN(c3ccc(C(=O)NS(=O)(=O)c4ccc(N[C@H](CCN5CCOCC5)CSc5ccccc5)c(S(=O)(=O)C(F)(F)F)c4)cc3)CC2)C1 [Navitoclax] (partner 0.5 µM)
0.882

// relative viability lookup, key: Oc1nc(-c2ccc(C(F)(F)F)cc2)nc2c1CSCC2 [XAV939] + Cc1nc(NC(=O)N2CCC[C@H]2C(N)=O)sc1-c1ccnc(C(C)(C)C(F)(F)F)c1 [Alpelisib] (partner 2 µM)
0.737

Please look up its relative viability: Oc1nc(-c2ccc(C(F)(F)F)cc2)nc2c1CSCC2 [XAV939] + O=C(c1cc(Cc2n[nH]c(=O)c3ccccc23)ccc1F)N1CCN(C(=O)C2CC2)CC1 [Olaparib] (partner 8 µM)
0.761

Param item = C=C1C(=O)O[C@@H](CCCCCCCC)[C@@H]1C(=O)O [C-75] + N=C(N)NC(=N)NCCc1ccccc1 [Phenformin] (partner 250 µM) ; retrieve measured relative viability.
0.63
